# credit: the NIST ThermoML archive (doi:10.1016/j.fluid.2016.05.030)

Details: 293.15 K; 101.33 kPa; Liquid; Concentric cylinders viscometry
± gives the expanded uncertainty stated by the source.
value_kind: viscosity

compound_structure | recorded_measurement
CCCCc1cccc[n+]1CC.O=S(=O)([N-]S(=O)(=O)C(F)(F)F)C(F)(F)F | 146.84 ± 2.3 mPa·s
CCCCCc1cccc[n+]1CC.O=S(=O)([N-]S(=O)(=O)C(F)(F)F)C(F)(F)F | 144.37 ± 2.2 mPa·s
CCCc1cccc[n+]1CC.O=S(=O)([N-]S(=O)(=O)C(F)(F)F)C(F)(F)F | 139.89 ± 2.1 mPa·s

---

List of viscosity values.
Details: 353.15 K; 101.33 kPa; Liquid; Concentric cylinders viscometry
value_kind: viscosity (mPa·s)

compound | unit_annotation | recorded_measurement
CCCCCCc1cccc[n+]1CC.O=S(=O)([N-]S(=O)(=O)C(F)(F)F)C(F)(F)F | mPa·s | 14.86
CCCCCCCc1cccc[n+]1CC.O=S(=O)([N-]S(=O)(=O)C(F)(F)F)C(F)(F)F | mPa·s | 15.97
CCCCCc1cccc[n+]1CC.O=S(=O)([N-]S(=O)(=O)C(F)(F)F)C(F)(F)F | mPa·s | 14.06
CCCCc1cccc[n+]1CC.O=S(=O)([N-]S(=O)(=O)C(F)(F)F)C(F)(F)F | mPa·s | 14.09
CCCc1cccc[n+]1CC.O=S(=O)([N-]S(=O)(=O)C(F)(F)F)C(F)(F)F | mPa·s | 13.94
CCCCCCCCc1cccc[n+]1CC.O=S(=O)([N-]S(=O)(=O)C(F)(F)F)C(F)(F)F | mPa·s | 17.72
CCc1cccc[n+]1CC.O=S(=O)([N-]S(=O)(=O)C(F)(F)F)C(F)(F)F [1,2-diethylpyridin-1-ium bis((trifluoromethyl)sulfonyl)imide] | mPa·s | 11.75

---

mass density values, listed per item
Details: 313.15 K; 101.33 kPa; Liquid; Vibrating tube method

compound | unit_annotation | mass density
CCCc1cccc[n+]1CC.O=S(=O)([N-]S(=O)(=O)C(F)(F)F)C(F)(F)F | kg/m3 | 1433.1
CCCCCCc1cccc[n+]1CC.O=S(=O)([N-]S(=O)(=O)C(F)(F)F)C(F)(F)F | kg/m3 | 1331.2
CCCCCc1cccc[n+]1CC.O=S(=O)([N-]S(=O)(=O)C(F)(F)F)C(F)(F)F | kg/m3 | 1357.8
CCCCc1cccc[n+]1CC.O=S(=O)([N-]S(=O)(=O)C(F)(F)F)C(F)(F)F | kg/m3 | 1395.4
CCCCCCCc1cccc[n+]1CC.O=S(=O)([N-]S(=O)(=O)C(F)(F)F)C(F)(F)F | kg/m3 | 1307.9
CCc1cccc[n+]1CC.O=S(=O)([N-]S(=O)(=O)C(F)(F)F)C(F)(F)F [1,2-diethylpyridin-1-ium bis((trifluoromethyl)sulfonyl)imide] | kg/m3 | 1456.3
CCCCCCCCc1cccc[n+]1CC.O=S(=O)([N-]S(=O)(=O)C(F)(F)F)C(F)(F)F | kg/m3 | 1284.8

---

Details: 338.15 K; 101.33 kPa; Liquid; Concentric cylinders viscometry
Numbers after ± are expanded uncertainties.
value_kind: viscosity

compound | recorded_measurement
CCCCCCCCc1cccc[n+]1CC.O=S(=O)([N-]S(=O)(=O)C(F)(F)F)C(F)(F)F | 27.82 ± 0.17 mPa·s
CCCCc1cccc[n+]1CC.O=S(=O)([N-]S(=O)(=O)C(F)(F)F)C(F)(F)F | 21.42 ± 0.13 mPa·s
CCCCCCc1cccc[n+]1CC.O=S(=O)([N-]S(=O)(=O)C(F)(F)F)C(F)(F)F | 22.8 ± 0.14 mPa·s
CCCCCc1cccc[n+]1CC.O=S(=O)([N-]S(=O)(=O)C(F)(F)F)C(F)(F)F | 21.4 ± 0.13 mPa·s
CCCc1cccc[n+]1CC.O=S(=O)([N-]S(=O)(=O)C(F)(F)F)C(F)(F)F | 21 ± 0.13 mPa·s
CCc1cccc[n+]1CC.O=S(=O)([N-]S(=O)(=O)C(F)(F)F)C(F)(F)F [1,2-diethylpyridin-1-ium bis((trifluoromethyl)sulfonyl)imide] | 16.9 ± 0.1 mPa·s
CCCCCCCc1cccc[n+]1CC.O=S(=O)([N-]S(=O)(=O)C(F)(F)F)C(F)(F)F | 24.71 ± 0.15 mPa·s
